- assay-explanation: chemical genetic growth profiling, strain panel (AID 1159580);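 further: tested at 20 µM; growth read once vehicle control cultures reached saturation at 30 °C; lower values mean less growth of the strain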
- condition: S. cerevisiae deletion strains, growth OD, locus YEL037C, strain rad23, hits give low values
The whole screen tested about 5,500 compounds, of which about 2,000 (36%) were called active. About 18% were inconclusive and are not listed. The list shows a part of the results.
Field: label. Allowed values: rule met (normalized growth < 1) or rule not met (normalized growth >= 1).

compound: C=C1C2CC[C@@]3(C)[C@H](c4ccoc4)OC(=O)C[C@]13O[C@H]1CC(=O)C(C)(C)C(CC(=O)OC)[C@@]21C (some centres not stated)
label-value: rule met
--
compound: O=c1cc(-c2ccccc2)oc2cc(O)c(O)c(O)c12
label-value: rule met
--
compound: CN(CCC(N)CC(=O)N[C@H]1C=CC(n2ccc(N)nc2=O)O[C@@H]1C(=O)O)C(=N)N (some centres not stated)
label-value: rule met
--
compound: O=c1cc(-c2ccccc2)oc2cccc(O)c12
label-value: rule met
--
compound: C[C@@H]1O[C@@H](O[C@H]2C[C@@H](O)[C@]3(CO)C4C(CC[C@]3(O)C2)[C@@]2(O)CC[C@H](C3=CC(=O)OC3)[C@@]2(C)C[C@H]4O)[C@H](O)[C@H](O)[C@H]1O (some centres not stated)
label-value: rule not met
